In this section we review reported log10 MEC values for a set of compounds.
Target: recombinant guanylate cyclase reporter cell line (Rattus norvegicus, UniProt P19686+P20595)
Construct: expressed in transfected cells
Sequence (P20595 whole entry): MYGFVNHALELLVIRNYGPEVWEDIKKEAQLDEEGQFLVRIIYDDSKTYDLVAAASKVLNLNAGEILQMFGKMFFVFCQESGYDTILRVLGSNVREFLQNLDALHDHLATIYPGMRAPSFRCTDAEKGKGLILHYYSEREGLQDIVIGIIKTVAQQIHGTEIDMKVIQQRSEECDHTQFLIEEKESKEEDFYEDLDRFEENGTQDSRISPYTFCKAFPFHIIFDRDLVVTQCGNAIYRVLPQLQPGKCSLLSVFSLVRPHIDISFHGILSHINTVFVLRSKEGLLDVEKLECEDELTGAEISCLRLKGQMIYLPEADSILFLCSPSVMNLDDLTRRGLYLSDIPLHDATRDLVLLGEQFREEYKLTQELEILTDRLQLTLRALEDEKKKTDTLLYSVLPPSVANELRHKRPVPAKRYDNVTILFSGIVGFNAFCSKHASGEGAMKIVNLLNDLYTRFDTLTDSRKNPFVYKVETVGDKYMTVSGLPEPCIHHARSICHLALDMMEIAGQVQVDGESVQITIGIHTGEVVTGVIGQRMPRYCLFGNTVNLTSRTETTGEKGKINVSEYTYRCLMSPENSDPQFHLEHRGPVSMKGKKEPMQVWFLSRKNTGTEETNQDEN
Sequence (P19686 whole entry): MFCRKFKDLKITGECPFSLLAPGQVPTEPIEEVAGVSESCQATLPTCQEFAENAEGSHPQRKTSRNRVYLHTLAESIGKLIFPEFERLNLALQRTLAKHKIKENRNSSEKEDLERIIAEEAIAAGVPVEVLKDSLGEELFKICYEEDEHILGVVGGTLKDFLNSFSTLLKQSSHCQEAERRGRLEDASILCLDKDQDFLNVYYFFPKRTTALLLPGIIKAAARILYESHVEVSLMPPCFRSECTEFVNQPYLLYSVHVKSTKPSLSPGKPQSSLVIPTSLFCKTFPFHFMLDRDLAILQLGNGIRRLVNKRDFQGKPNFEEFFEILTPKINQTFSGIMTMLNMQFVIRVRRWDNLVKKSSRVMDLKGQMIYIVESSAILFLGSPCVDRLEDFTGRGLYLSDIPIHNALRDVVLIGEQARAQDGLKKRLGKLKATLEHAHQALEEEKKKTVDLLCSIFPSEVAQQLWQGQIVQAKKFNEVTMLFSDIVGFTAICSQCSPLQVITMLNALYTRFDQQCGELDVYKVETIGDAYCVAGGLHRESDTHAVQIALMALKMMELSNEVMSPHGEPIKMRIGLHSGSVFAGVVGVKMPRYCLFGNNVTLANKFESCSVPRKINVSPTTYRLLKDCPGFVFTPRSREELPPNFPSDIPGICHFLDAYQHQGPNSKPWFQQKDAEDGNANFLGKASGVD
Assay: B-2. Action on recombinant guanylate cyclase reporter cell line
Format: cell-based
Conditions: MEC = minimal effective concentration; in some cases mean values from individual determinations
Hello, just confirming the data are log10 of MEC with units of µM.

Below, each entry is followed by its recorded log10 MEC result.
| Compound | log10 MEC |
| --- | --- |
| Cc1cc(OCc2c(F)cccc2F)c2nc(C)c(C(=O)NCC(C)(N)Cc3ccc(F)cc3)n2c1 (racemic) | -1.00 |
| CCCC(C)(N)CNC(=O)c1c(C)nc2c(OCc3c(F)cccc3F)cc(C)cn12 (single isomer, unassigned) [Example 234] | -1.52 |
| COC(=O)c1cccc(C(N)CNC(=O)c2c(C)nc3c(OCc4c(F)cccc4F)cc(C)cn23)c1 (racemic) | 0.00 |
| CCN1C2CCCC1CC(NC(=O)c1c(C)nc3c(OCc4c(F)cccc4F)cccn13)C2 (stereo not drawn) | -0.52 |

Value of measured log10 MEC for the entry Cc1nc2c(OCc3c(F)cccc3F)cccn2c1C(=O)NC1CC2CCCC(C1)N2C (stereo not drawn) : -1.00

Lab note: CCC(C)(N)CNC(=O)c1c(C)nc2c(OCc3c(F)ccc(F)c3F)cc(C)cn12 (single isomer, unassigned; enantiomer b) [Example 275] gave log10 MEC of -1.00

----------
MEC: recorded values
Target: recombinant guanylate cyclase reporter cell line (Rattus norvegicus, UniProt P19686+P20595)
Construct: expressed in transfected cells
Assay: B-2. Action on recombinant guanylate cyclase reporter cell line
Format: cell-based
Settings: MEC = minimal effective concentration; in some cases mean values from individual determinations
Please state the figure in µM; there is no need to write the unit.

| Compound | MEC / µM |
| --- | --- |
| COCCNCCNC(=O)c1c(C)nc2c(OCc3c(F)cccc3F)cc(Cl)cn12 [Example 153] | 1.00 |
| Cc1cc(OCc2c(F)cccc2F)c2nc(C)c(C(=O)NC3CNCC(F)(F)C3)n2c1 (racemic) [Example 312] | 0.30 |
| Cc1cc(OCc2c(F)cccc2F)c2nc(C)c(C(=O)NCC3(N)COC3)n2c1 [Example 216] | 1.00 |
| Cc1cc(OCc2c(F)cccc2F)c2nc(C)c(C(=O)NC[C@@H]3CCCCN3)n2c1 [Example 172] | 0.30 |
| Cc1nc2c(OCc3c(F)cccc3F)cccn2c1C(=O)NC(CN1CCOCC1)c1ccccc1 (racemic) [Example 134] | 3.00 |
| Cc1cc(OCc2c(F)cccc2F)c2nc(C)c(C(=O)NCC(C)(N)CF)n2c1 (single isomer, unassigned; enantiomer a) [Example 283] | 0.3 |

Moving on to another compound below.
Record CC[C@@H](N)CNC(=O)c1c(C)nc2c(OCc3c(F)cccc3F)cc(Cl)cn12 [Example 35] , field MEC: 1.00

----------
Molecular target: recombinant guanylate cyclase reporter cell line (Rattus norvegicus, UniProt P19686+P20595)
Construct: expressed in transfected cells
Experiment: B-2. Action on recombinant guanylate cyclase reporter cell line
Type: cell-based
Conditions: MEC = minimal effective concentration; in some cases mean values from individual determinations
Quantity name: MEC (µM)
State the answer as a number, implicitly in µM.

Field: example entries. Status: answers known.
| Compound | MEC [µM] |
| --- | --- |
| Cc1cc(OCc2c(F)cccc2F)c2nc(C)c(C(=O)NCCN(CC(F)F)C3CC3)n2c1 | 0.10 |
| Cc1cc(OC(C)c2c(F)cccc2F)c2nc(C)c(C(=O)NCC(C)(C)N)n2c1 (single isomer, unassigned; enantiomer b) | 3.00 |
| Cc1nc2c(OCc3c(F)cccc3F)cccn2c1C(=O)NC(CN)c1ccc(F)cc1 (racemic) [Example 9] | 0.30 |

With those in mind, consider the next compound.
Record Cc1cc(OCc2c(F)cccc2F)c2nc(C)c(C(=O)NC(CN)c3cccc(C(F)(F)F)c3)n2c1 (racemic) , field MEC: 0.30

Data provenance is patent US9624214B2.
